# target.under.test: IV-cPLA(2) (Homo sapiens, UniProt P47712)
# Sequence (P47712 whole entry): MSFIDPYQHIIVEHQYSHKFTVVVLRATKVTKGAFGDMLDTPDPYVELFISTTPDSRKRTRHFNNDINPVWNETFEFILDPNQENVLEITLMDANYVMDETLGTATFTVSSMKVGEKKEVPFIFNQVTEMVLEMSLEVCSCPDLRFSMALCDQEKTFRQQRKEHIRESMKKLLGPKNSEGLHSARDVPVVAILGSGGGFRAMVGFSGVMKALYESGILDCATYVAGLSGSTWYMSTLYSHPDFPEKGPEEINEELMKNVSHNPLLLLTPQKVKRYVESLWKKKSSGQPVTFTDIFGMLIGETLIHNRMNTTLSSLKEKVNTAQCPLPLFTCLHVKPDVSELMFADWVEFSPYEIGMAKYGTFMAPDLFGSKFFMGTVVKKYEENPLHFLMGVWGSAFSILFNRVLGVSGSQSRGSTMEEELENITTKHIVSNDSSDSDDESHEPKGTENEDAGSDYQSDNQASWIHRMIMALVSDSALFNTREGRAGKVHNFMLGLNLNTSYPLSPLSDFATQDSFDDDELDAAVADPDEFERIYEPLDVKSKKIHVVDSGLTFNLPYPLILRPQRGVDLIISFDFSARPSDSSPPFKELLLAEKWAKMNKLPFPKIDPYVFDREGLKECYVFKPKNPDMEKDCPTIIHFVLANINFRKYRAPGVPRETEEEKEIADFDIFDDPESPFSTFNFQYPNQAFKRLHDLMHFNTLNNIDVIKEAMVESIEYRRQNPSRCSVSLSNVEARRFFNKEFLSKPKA
# assay.summary: PLA(2) activity, hydrolysis of bis-BODIPY FL C11-PC in activated U937 cells
# Type: cell-based
# condition.description: 0.01 μM
# Description: […]
readout.label: Inhibition (%)
Lab book: enter the figure in %, no units written.

Known results for compounds:
C[C@@H]1[C@@H](c2ccc(Cl)cc2)SC(=O)N1C(=O)NC1CCCCO1 (single isomer, unassigned)	78
COC1CCCC(NC(=O)N2C(=O)OC(c3ccc4c(c3)CCCC4)C2C)O1 (stereo not drawn)	64
Cc1ccc(C2SC(=O)N(C(=O)NC3CCCCO3)C2C)cc1 (stereo not drawn)	86
O=C(NC1CCCCO1)N1CC(c2ccc(-c3ccccc3)cc2)OC1=O (stereo not drawn)	100
CC1C(c2cnc3ccccc3c2)OC(=O)N1C(=O)NC1CCCCO1 (stereo not drawn)	64

// moving on: another record for Inhibition (%)
Given the entry CC1C(c2ccc3c(c2)CCC3)OC(=O)N1C(=O)NC1CCCCO1 (stereo not drawn) , report its measured Inhibition (%).
54
